TEST_TARGET: Leucine-rich repeat serine/threonine-protein kinase 2 (Homo sapiens, UniProt Q5S007, G2019S)
Sequence (Q5S007 whole entry G2019S, the tested form may be a part): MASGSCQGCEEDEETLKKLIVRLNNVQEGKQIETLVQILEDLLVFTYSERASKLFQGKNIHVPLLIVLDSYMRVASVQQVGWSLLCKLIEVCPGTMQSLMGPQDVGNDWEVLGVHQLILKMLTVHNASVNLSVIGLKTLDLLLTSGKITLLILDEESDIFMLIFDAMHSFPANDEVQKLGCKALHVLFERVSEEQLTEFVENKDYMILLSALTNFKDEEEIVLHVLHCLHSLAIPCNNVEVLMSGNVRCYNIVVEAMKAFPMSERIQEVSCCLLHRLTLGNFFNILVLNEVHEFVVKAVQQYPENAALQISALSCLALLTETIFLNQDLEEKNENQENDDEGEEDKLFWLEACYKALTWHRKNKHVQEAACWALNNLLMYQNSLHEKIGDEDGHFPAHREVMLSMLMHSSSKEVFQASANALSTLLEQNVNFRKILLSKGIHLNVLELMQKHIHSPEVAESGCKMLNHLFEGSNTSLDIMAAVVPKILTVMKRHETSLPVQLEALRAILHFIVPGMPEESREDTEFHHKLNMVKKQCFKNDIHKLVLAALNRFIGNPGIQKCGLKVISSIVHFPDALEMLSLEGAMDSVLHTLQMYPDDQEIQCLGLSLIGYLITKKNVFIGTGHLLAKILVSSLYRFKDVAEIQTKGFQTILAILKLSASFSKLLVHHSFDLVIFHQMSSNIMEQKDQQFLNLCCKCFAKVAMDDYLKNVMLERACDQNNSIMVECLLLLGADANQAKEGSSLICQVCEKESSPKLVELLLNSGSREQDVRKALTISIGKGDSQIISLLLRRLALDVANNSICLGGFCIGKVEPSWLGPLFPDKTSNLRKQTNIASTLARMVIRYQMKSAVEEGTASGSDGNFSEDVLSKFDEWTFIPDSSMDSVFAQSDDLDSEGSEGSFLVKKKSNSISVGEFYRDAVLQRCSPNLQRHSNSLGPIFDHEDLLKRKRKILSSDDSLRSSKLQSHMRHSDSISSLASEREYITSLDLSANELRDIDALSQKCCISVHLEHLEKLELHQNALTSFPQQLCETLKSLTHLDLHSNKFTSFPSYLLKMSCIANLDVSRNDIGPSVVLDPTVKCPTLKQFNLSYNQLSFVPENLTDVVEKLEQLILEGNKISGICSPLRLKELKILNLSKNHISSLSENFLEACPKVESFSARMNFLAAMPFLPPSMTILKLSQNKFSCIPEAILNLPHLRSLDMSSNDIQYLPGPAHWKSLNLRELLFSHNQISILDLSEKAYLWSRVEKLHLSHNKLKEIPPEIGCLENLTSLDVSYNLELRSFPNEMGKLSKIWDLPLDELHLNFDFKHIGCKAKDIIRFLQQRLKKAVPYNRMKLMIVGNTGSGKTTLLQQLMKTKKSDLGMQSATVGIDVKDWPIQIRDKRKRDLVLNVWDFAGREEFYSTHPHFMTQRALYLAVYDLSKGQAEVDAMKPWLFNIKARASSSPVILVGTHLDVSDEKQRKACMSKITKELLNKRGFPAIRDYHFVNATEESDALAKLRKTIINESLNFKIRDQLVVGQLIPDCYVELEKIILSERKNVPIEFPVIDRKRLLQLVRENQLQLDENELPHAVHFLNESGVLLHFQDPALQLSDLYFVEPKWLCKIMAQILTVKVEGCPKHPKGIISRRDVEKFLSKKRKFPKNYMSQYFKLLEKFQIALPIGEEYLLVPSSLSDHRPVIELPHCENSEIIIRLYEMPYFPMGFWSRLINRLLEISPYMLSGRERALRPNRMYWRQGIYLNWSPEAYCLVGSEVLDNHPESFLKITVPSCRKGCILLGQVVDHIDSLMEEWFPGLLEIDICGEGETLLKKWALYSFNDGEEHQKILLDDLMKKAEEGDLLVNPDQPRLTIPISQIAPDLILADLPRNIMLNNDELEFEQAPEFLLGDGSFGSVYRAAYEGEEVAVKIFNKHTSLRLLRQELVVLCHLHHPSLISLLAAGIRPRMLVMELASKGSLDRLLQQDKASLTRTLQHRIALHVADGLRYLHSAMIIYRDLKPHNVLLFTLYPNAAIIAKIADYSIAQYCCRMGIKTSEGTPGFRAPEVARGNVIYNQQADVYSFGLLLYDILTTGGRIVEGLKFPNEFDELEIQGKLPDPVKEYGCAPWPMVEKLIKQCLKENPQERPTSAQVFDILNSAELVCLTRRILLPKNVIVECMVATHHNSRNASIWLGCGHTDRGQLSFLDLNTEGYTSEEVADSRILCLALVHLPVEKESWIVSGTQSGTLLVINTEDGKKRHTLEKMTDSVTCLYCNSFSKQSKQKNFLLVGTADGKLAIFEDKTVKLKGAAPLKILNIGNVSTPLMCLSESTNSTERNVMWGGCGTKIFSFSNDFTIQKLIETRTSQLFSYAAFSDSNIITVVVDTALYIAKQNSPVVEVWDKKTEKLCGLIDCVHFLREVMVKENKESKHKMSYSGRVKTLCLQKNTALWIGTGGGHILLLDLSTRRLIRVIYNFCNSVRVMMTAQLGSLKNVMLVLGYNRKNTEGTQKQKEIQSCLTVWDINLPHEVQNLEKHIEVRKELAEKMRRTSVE
EXPERIMENT_DESCRIPTION: Inhibition of N-terminal GST-fused human LRRK2 G2019S mutant using fluorescein-labeled LRRKtide as substrate preincubated for 15 mins followed by substrate addition and measured after 1 hr by TR-FRET assay
pIC50: −log10 of the molar value.
RECORDED_ENDPOINT: pIC50

SMILES_DATA	RESULT
CC1=C(C(=O)Nc2ccc3[nH]nc(-c4ccnc(N5CCOCC5)c4)c3c2)C(C)(C)n2nnnc2N1C	> 9.70
CC1=C(C(=O)Nc2ccc3[nH]nc(-c4ccncc4)c3c2)[C@@H](C)n2nnnc2N1C	> 9.70
CC1=C(C(=O)Nc2ccc3[nH]nc(-c4ccccc4)c3c2)C(C)(C)n2nnnc2N1C	> 9.70
CN1C=C(C(=O)Nc2ccc3[nH]ncc3c2)Cn2nnnc21	< 5.00

Reference for the values: ChEMBL document CHEMBL5244270
